# tested system: T1, human MSLN expressed on CHO cells (human, UniProt Q13421 296-598)
# T1 construct: whole, on cells; also called CHO-huMSLN
# T1 sequence (Q13421 other isoform, or with tags, fused parts or gaps limits assumed): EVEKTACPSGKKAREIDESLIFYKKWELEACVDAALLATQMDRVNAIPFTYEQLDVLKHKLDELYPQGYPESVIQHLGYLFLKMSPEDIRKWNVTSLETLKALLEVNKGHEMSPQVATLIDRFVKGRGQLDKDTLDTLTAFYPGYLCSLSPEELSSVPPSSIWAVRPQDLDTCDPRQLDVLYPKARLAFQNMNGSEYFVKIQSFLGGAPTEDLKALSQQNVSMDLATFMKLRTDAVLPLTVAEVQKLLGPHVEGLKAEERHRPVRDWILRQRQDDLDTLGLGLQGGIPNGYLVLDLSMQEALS
# experiment notes: flow cytometry, antibody supernatant on CHO cells expressing human MSLN
reported property: fold over background MFI signal
Write your answer as a measured quantity: the number, then the unit.

What value of measured fold over background MFI signal is listed for anti-MSLN single domain antibody clone 394567 (VHH, Human VH single domain antibody; Tested as antibody-containing supernatant) VHH: QLQLQESGPGLVKPSETLSLTCTVSGGSISNSYYWGWIRQPPGKGLEWIGSIYYSGSIHYNPSLKSRVTISVDTSKNQFSLKLSSVTAADTAVYYCTSQDGVGATTTEEYWGQGTLVTVSS ?
16.9 fold over background

Look up fold over background MFI signal: anti-MSLN single domain antibody clone 394556 (VHH, Human VH single domain antibody; It was captured on anti-hIgG Fc (AHC) sensors, so it apparently carried a human Fc) VHH: QLQLQESGPGLVKPSETLSLTCTVSGGSISNSYYWGWIRQPPGKGLEWIGSIYHSGNTYYNPSLKSRVTISVDTSKNQFSLKLSSVTAADTAVYYCVTQDGVGATTTEEYWGQGTLVTVSS
540 fold over background
